The measurements presented in this section are drawn from the supplement of paper PMC11246515.

method_description: total protein half-life in vivo (active degradation + dilution); higher = more stable protein
condition_notes: E. coli NCM3722 delta-smpB; growth: N-lim chemostat; doubling time 6 h

| seq | total protein half-life in vivo / h |
| --- | --- |
| MSEKVVFSQLSRKFIDENDATPAEAQQVVYYSLAIGHHLGVIDCLEAALTCPWDEYLAWIATLEAGSEARRKMEGVPKYGEIVIDINHVPMLANAFDKARAAQTSQQQEWSTMLLSMLHDIHQENAIYLMVRRLRD [P0AEV7] | 1.7 |
| MIKVLIVDDEPLARENLRVFLQEQSDIEIVGECSNAVEGIGAVHKLRPDVLFLDIQMPRISGLEMVGMLDPEHRPYIVFLTAFDEYAIKAFEEHAFDYLLKPIDEARLEKTLARLRQERSKQDVSLLPENQQALKFIPCTGHSRIYLLQMKDVAFVSSRMSGVYVTSHEGKEGFTELTLRTLESRTPLLRCHRQYLVNLAHLQEIRLEDNGQAELILRNGLTVPVSRRYLKSLKEAIGL [P0AFT5] | 3.83 |
